Parameter log10 Kd: see the listing below.
biological target: Tetanus toxoid (TT) (UniProt P04958 2-1315); experiment: competitive ELISA, IgG equilibrated with soluble TT, TT-coated plate
Sequence (P04958 2-457 limits assumed, chain 1 of 2): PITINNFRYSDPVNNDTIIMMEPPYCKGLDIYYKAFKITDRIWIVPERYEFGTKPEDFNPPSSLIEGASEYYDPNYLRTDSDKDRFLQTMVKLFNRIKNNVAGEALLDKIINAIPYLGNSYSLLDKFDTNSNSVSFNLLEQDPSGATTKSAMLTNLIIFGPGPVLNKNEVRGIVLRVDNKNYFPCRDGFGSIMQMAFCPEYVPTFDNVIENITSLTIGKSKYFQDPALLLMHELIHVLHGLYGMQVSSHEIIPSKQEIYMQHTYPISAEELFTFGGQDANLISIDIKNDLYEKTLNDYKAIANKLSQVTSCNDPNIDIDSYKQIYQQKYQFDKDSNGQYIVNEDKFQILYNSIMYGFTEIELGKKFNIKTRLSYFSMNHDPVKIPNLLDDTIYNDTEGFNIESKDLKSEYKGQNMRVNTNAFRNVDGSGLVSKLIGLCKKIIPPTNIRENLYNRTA
Sequence (P04958 458-1315 limits assumed, chain 2 of 2): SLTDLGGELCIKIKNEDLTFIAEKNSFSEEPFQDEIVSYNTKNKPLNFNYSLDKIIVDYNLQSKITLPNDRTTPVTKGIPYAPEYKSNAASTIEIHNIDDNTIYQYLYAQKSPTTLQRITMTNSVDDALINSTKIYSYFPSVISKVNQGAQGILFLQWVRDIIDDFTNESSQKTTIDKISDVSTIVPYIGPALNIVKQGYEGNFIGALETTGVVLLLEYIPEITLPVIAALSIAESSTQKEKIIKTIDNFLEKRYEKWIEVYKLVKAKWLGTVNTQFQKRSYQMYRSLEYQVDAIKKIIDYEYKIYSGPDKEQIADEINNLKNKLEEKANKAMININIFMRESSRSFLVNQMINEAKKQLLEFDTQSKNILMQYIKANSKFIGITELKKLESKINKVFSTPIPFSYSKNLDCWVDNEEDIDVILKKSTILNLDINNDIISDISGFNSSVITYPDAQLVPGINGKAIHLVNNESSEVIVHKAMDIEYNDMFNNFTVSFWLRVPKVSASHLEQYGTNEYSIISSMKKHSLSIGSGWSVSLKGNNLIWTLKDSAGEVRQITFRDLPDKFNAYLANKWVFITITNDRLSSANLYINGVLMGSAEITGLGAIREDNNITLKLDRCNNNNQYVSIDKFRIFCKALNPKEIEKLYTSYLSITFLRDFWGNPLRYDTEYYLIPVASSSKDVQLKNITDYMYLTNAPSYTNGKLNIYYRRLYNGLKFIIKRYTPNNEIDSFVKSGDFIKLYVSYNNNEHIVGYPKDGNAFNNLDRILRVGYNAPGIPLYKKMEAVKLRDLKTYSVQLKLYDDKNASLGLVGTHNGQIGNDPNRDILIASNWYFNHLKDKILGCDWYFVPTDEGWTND
measured.quantity: log10 Kd (log10 of the value in nM)

{"binder": "TT-5 (antibody, V domains shown, also called VH-5/VL-5) VH: QVQLQESGPGLVKPSETLSLTCTVSGGSINSYYWSWIRQSPGKGLEWIGYIYYTGINKYNPSLKSRVTISMDTSKRQVSLKVTSLTPADTAVYFCARLHPTCASTRCPENYGMDVWGQGTTVAVSS VL: DIRLTQSPSSLSASVGDRVTITCRSSQTISTYLNWYQQKPGEAPKILIYAASSLHTGVPSRFSGSGSGTDFTLTITSLQPEDFAIYHCQQSYSTPYTFGQGTKVEIK", "result.number": 1.26}
{"binder": "TT-2 (antibody, V domains shown, also called VH-2/VL-2) VH: QVQLVQSGGGVKQPGGSLRLSCTASGFTFEDFNMHWVRQAPGKGLEWISYISGDGDRTHYSDSVRGRFTISRDNSGNSLYLQMTSLRTEDAGFYYCGKSYDYIRENLDSWGQGTLVTVSS VL: QPGLTQPPSVSVAPGQTARITCGGNNIGSRHVHWYQQRPGQAPVLVVYDDDARPSGISGRFSGSNSGNTATLTISWVEAGDEADYYCQVSDSGREWGVFGSGTKVTVL", "result.number": 1.35}
{"binder": "TT-8 (antibody, V domains shown, also called VH-9/VL-9) VH: QVQLVESGGGLVKPGGSLRLSCAASGFSFSHYSMNWIRQAPGKGLEWVASITSGSTNMVYADSLRARFSISRDNAKNSLYLQMDSLSAEDTAVYYCARKGMGHYFDFWGQGTPVTVSS VL: QTVVTQEPSSSVSLGGTVTLTCGLTSGPVTGAYYPSWHQQTPGQAPRTLIYNTYSLSSGVSDRFSGSILGNKAALTISGAQADDESDYYCVLYMGSGIWMFGGGTKLTVL", "result.number": 0.45}
{"binder": "TT-4 (antibody, V domains shown, also called VH-4/VL-4) VH: QVTLKESGPALVKPTQTLTLTCTFSGFSLLSSGMCVSWIRQPPGKALEWLARIDWDEKKYYSPSLKTRLTISKDTSKDQVVLTMTNMDPLDTAMYSCARGVVPAGIPFDFWGQGIMVTVSS VL: ETTLTQSPSTLPASVGDRVTITCRASENINSWLAWYQQKPGKAPKILIYRASNLESGVPSRFSGSGSGTEFTLTISSLQPDDFATYYCQHFDKYFSWTFGHGTKVEIK", "result.number": 0.51}
{"binder": "TT-11 (antibody, V domains shown, also called VH-13/VL-13) VH: QVQLVESGAEVKKPGASVRVSCKASGYTFTNYGLAWVRQAPGQGLEWMGWITVYNGHTSYAQKFHDRVTMTTDTSTRTAYLEVRNLGSDDTAVYYCARKPRFYYDTSAWFEFWGQGTLVTVSS VL: DIVLTQSPETLSVSPGESATLSCRASQSVSTDLAWYQHKPGQAPRLLIWGASTRATGIPARFSGSGSGTEFTLTISSLQSEDFAICFCHQYNNWPTFGQGTKVEIK", "result.number": 0.20}
